Assay: Stability of the compound assessed as bovine pancreatic trypsin-mediated parent compound depletion by measuring parent compound remaining after 1 hr by LC-MS/MS analysis
Assay type: ADME, Bos taurus
Details: cattle, read-out: Stability
PROPERTY_NAME: remaining at 1 h
A complete answer gives the number followed by the unit.

Example results:
COc1ccc(C[C@@H]2NC(=O)[C@H]([C@@H](C)O)NC(=O)[C@@H]3[C@@H]4CCN3C(=O)[C@@H]3Cc5cn(c6ccc(F)cc56)Cc5cn(nn5)-c5cc(cc(c5)CSCCC(=O)N[C@@H](CNC(=O)CCOCCOCC[N+](C)(C)C)C(=O)N[C@H](C)C(=O)N[C@@H](Cc5cccc(c5)C/C=C/CO4)C(=O)N3)CSCCNC(=O)[C@]3(C)CCCN3C2=O)cc1
96.8%
COc1ccc(C[C@@H]2NC(=O)[C@H]([C@@H](C)O)NC(=O)[C@@H]3[C@@H]4CCN3C(=O)[C@@H]3Cc5cn(c6ccc(F)cc56)Cc5cn(nn5)-c5cc(cc(c5)CSCCC(=O)N[C@@H](C)C(=O)N[C@H](CNC(=O)CCOCCOCC[N+](C)(C)C)C(=O)N[C@@H](Cc5cccc(c5)C/C=C/CO4)C(=O)N3)CSCCNC(=O)[C@]3(C)CCCN3C2=O)cc1
100%

QUERY: Given the compound `COc1ccc(C[C@@H]2NC(=O)[C@H]([C@@H](C)O)NC(=O)[C@@H]3[C@@H]4CCN3C(=O)[C@@H]3Cc5cn(c6ccc(F)cc56)Cc5cn(nn5)-c5cc(cc(c5)CSCCC(=O)N[C@@H](CN)C(=O)N[C@H](C)C(=O)N[C@@H](Cc5cccc(c5)C/C=C/CO4)C(=O)N3)CSCCNC(=O)[C@]3(C)CCCN3C2=O)cc1` , what is its reported remaining at 1 h?
RESULT: 100%

---

Biological target: Proprotein convertase subtilisin/kexin type 9 (Homo sapiens)
Experiment: Inhibition of human PCSK9 using Alexa Fluor […] as substrate incubated for 2 hrs by FRET ultra assay
# pKi values compiled below
// pKi: -log10(molar conc.)

COc1ccc(C[C@@H]2NC(=O)[C@H]([C@@H](C)O)NC(=O)[C@@H]3[C@@H]4CCN3C(=O)[C@@H]3Cc5cn(c6ccc(F)cc56)Cc5cn(nn5)-c5cc(cc(c5)CSCCC(=O)N[C@@H](C)C(=O)N[C@H](CNC(=O)CCOCCOCC[N+](C)(C)C)C(=O)N[C@@H](Cc5cccc(c5)C/C=C/CO4)C(=O)N3)CSCCNC(=O)[C@]3(C)CCCN3C2=O)cc1
12.03
COc1ccc(C[C@@H]2NC(=O)[C@H]([C@@H](C)O)NC(=O)[C@@H]3[C@@H]4CCN3C(=O)[C@@H]3Cc5cn(c6ccc(F)cc56)Cc5cn(nn5)-c5cc(cc(c5)CSCCC(=O)N[C@@H](CN)C(=O)N[C@H](C)C(=O)N[C@@H](Cc5cccc(c5)C/C=C/CO4)C(=O)N3)CSCCNC(=O)[C@]3(C)CCCN3C2=O)cc1
11.03

QUERY: # get_value(readout='pKi', item= `COc1ccc(C[C@@H]2NC(=O)[C@H]([C@@H](C)O)NC(=O)[C@@H]3[C@@H]4CCN3C(=O)[C@@H]3Cc5cn(c6ccc(F)cc56)Cc5cn(nn5)-c5cc(cc(c5)CSCCC(=O)N[C@@H](CNC(=O)CCOCCOCCN)C(=O)N[C@H](C)C(=O)N[C@@H](Cc5cccc(c5)C/C=C/CO4)C(=O)N3)CSCCNC(=O)[C@]3(C)CCCN3C2=O)cc1` )
RESULT: 11.09

QUERY: Same thing, different molecule: `COc1ccc(C[C@@H]2NC(=O)[C@H]([C@@H](C)O)NC(=O)[C@@H]3[C@@H]4CCN3C(=O)[C@@H]3Cc5cn(c6ccc(F)cc56)Cc5cn(nn5)-c5cc(cc(c5)CSCCC(=O)N[C@@H](CNC(=O)CCOCCOCC[N+](C)(C)C)C(=O)N[C@H](C)C(=O)N[C@@H](Cc5cccc(c5)C/C=C/CO4)C(=O)N3)CSCCNC(=O)[C@]3(C)CCCN3C2=O)cc1`
RESULT: 11.62

QUERY: Could you do the same for `COc1ccc(C[C@@H]2NC(=O)[C@H]([C@H](C)O)NC(=O)[C@@H]3[C@@H]4CCN3C(=O)[C@@H]3Cc5cn(c6ccc(F)cc56)Cc5cn(nn5)-c5cc(cc(c5)CSCCC(=O)N[C@@H](C)C(=O)N[C@@H](CNC(=O)CCOCCOCCNC(=O)CCCC[C@@H]5SC[C@H]6NC(=O)N[C@@H]56)C(=O)N[C@@H](Cc5cccc(c5)C/C=C/CO4)C(=O)N3)CSCCNC(=O)[C@]3(C)CCCN3C2=O)cc1` , please?
RESULT: 12.22

---

Test: Oral bioavailability in cynomolgus monkey at 1 mg/kg measured upto 72 hrs by LC-MS/MS analysis
Type: ADME, organism-based, Macaca fascicularis
Conditions: in vivo
PROPERTY_NAME: bioavailability (%)
All answers are understood in %, so give the number only.

QUERY: Which bioavailability is listed for `COc1ccc(C[C@@H]2NC(=O)[C@H]([C@@H](C)O)NC(=O)[C@@H]3[C@@H]4CCN3C(=O)[C@@H]3Cc5cn(c6ccc(F)cc56)Cc5cn(nn5)-c5cc(cc(c5)CSCCC(=O)N[C@@H](CNC(=O)CCOCCOCC[N+](C)(C)C)C(=O)N[C@H](C)C(=O)N[C@@H](Cc5cccc(c5)C/C=C/CO4)C(=O)N3)CSCCNC(=O)[C@]3(C)CCCN3C2=O)cc1` ?
RESULT: 2.9

---

Test: Protein binding in cynomolgus monkey at 1 mg/kg, iv measured upto 72 hrs by LC-MS/MS analysis
Format: ADME, organism-based, Macaca fascicularis
Conditions: in vivo, read-out: PB (converted)
PROPERTY_NAME: fraction unbound at 72 h

QUERY: Can you share its fraction unbound at 72 h? I mean this compound: `COc1ccc(C[C@@H]2NC(=O)[C@H]([C@@H](C)OC)NC(=O)[C@@H]3[C@@H]4CCN3C(=O)[C@H](Cc3c[nH]c5ccc(F)cc35)NC(=O)[C@H](Cc3cccc(c3)C/C=C/CO4)NC(=O)[C@@H](C)NC(=O)[C@H](C)NC(=O)CCSCc3cccc(c3)CSCCNC(=O)[C@]3(C)CCCN3C2=O)cc1`
RESULT: 0.024

---

Target: Proprotein convertase subtilisin/kexin type 9 (Homo sapiens, UniProt Q8NBP7)
Sequence (Q8NBP7 31-152 limits assumed): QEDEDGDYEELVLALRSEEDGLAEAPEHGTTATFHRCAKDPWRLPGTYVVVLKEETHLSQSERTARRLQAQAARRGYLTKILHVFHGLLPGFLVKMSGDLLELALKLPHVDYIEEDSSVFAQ
Sequence (Q8NBP7 153-692 limits assumed): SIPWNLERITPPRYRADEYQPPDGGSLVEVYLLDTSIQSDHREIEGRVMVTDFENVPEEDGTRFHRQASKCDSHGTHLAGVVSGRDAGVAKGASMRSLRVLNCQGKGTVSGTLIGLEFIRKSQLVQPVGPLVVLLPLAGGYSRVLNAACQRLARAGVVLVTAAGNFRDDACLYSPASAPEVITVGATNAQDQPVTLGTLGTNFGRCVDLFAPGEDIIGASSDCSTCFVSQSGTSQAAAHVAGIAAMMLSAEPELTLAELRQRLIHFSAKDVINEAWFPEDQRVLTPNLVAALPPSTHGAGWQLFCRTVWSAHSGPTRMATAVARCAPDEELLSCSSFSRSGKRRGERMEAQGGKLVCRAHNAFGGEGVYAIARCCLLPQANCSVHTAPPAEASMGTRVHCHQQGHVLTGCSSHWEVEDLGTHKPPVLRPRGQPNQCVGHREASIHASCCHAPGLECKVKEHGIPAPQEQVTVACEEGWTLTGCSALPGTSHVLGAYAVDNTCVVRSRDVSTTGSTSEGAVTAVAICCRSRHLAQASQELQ
Test: Inhibition of human PCSK9 using Alexa Fluor […] as substrate incubated for 2 hrs by FRET assay
PROPERTY_NAME: Ki (nM)
Your answer is read as nM, so omit the unit and give the number.

These solved cases illustrate the format of a correct answer.
COc1ccc(C[C@@H]2NC(=O)[C@H]([C@@H](C)OC)NC(=O)[C@@H]3[C@@H]4CCN3C(=O)[C@H](Cc3c[nH]c5ccc(F)cc35)NC(=O)[C@H](Cc3cccc(c3)CCCCO4)NC(=O)[C@@H](C)NC(=O)[C@H](C)NC(=O)CCSCc3cccc(c3)CSCCNC(=O)[C@]3(C)CCCN3C2=O)cc1
2.17
COc1ccc(C[C@@H]2NC(=O)[C@H]([C@H](C)OC)NC(=O)[C@@H]3[C@@H]4CCN3C(=O)[C@H](Cc3c[nH]c5ccc(F)cc35)NC(=O)[C@H](Cc3cccc(c3)C/C=C/CO4)NC(=O)[C@H](C)NC(=O)[C@H](CN)NC(=O)CCSCc3cccc(c3)CSCCNC(=O)[C@]3(C)CCCN3C2=O)cc1
0.45
COc1ccc(C[C@@H]2NC(=O)[C@H]([C@@H](C)OC)NC(=O)[C@@H]3[C@@H]4CCN3C(=O)[C@H](Cc3c[nH]c5ccc(F)cc35)NC(=O)[C@H](Cc3cccc(c3)C/C=C/CO4)NC(=O)[C@@H](CN)NC(=O)[C@H](C)NC(=O)CCSCc3cccc(c3)CSCCNC(=O)[C@]3(C)CCCN3C2=O)cc1
0.2

QUERY: Give its Ki value. Item: `COc1ccc(C[C@@H]2NC(=O)[C@H]([C@@H](C)OC)NC(=O)[C@@H]3[C@@H]4CCN3C(=O)[C@H](Cc3c[nH]c5ccc(F)cc35)NC(=O)[C@H](Cc3cccc(c3)C/C=C/CO4)NC(=O)[C@@H](C)NC(=O)[C@H](C)NC(=O)CCSCc3cccc(c3)CSCCNC(=O)[C@]3(C)CCCN3C2=O)cc1`
RESULT: 0.48

---

Test: Volume of distribution at steady state in cynomolgus monkey at 1 mg/kg, iv measured upto 72 hrs by LC-MS/MS analysis
Format: ADME, organism-based, Macaca fascicularis
Conditions: in vivo, read-out: Vdss
PROPERTY_NAME: Vd (L/kg)
The answer is to be given in L/kg; state only the numeric part.

QUERY: Requested field: Vd. Item: `COc1ccc(C[C@@H]2NC(=O)[C@H]([C@@H](C)OC)NC(=O)[C@@H]3[C@@H]4CCN3C(=O)[C@H](Cc3c[nH]c5ccc(F)cc35)NC(=O)[C@H](Cc3cccc(c3)C/C=C/CO4)NC(=O)[C@@H](C)NC(=O)[C@H](C)NC(=O)CCSCc3cccc(c3)CSCCNC(=O)[C@]3(C)CCCN3C2=O)cc1`
RESULT: 2.1
